Origin of the recorded values: paper PMC12980303

- protocol.summary: risk score from prevalence in routine forensic samples and intoxication cases (G1, PSS, TSS)
- Design: species or system human
- recorded.conditions: proportion in intoxication cases relative to prevalence in routine serum/blood and urine samples per quarter, 2013–2021; >1 over‐represented in intoxications
Exercise: state measured G1 for each of the molecules provided.
Answers are plain numbers.

[
  {
    "molecule": "COC(=O)C(NC(=O)c1cn(CCCCF)c2ccccc12)C(C)(C)C (stereo not drawn) [4F‐MDMB‐BICA]",
    "G1": 0.48
  },
  {
    "molecule": "CC(C)(C)C(NC(=O)c1nn(CC2CCCCC2)c2ccccc12)C(N)=O (stereo not drawn)",
    "G1": 2.3
  },
  {
    "molecule": "C=CCCCn1nc(C(=O)NC(C(=O)OC)C(C)(C)C)c2ccccc21 (stereo not drawn) [MDMB‐4en‐PINACA]",
    "G1": 1.6
  }
]

For every item in the list below, what is its measured G1?
1. COC(=O)C(NC(=O)c1cn(CC2CCCCC2)c2ccccc12)C(C)(C)C (stereo not drawn) [MDMB‐CHMICA]
2. CCCCCn1c2ccccc2c2c(=O)n(C(C)(C)c3ccccc3)ccc21 [Cumyl‐PEGACLONE]
3. CC(C)C(NC(=O)c1nn(CC2CCCCC2)c2ccccc12)C(N)=O (stereo not drawn)

[0.73, 0.32, 2.8]

* * *

- protocol.summary: risk score from prevalence in routine forensic samples and intoxication cases (G1, PSS, TSS)
- Design: species or system human
- recorded.conditions: mean Toxicological Significance Score (TSS) of all intoxications with the SCRA
experimental.endpoint: G3

Some compounds with known G3 results, for comparison:
[
  {
    "compound": "CC(C)(c1ccccc1)n1ccc2c(c1=O)c1ccccc1n2CCCCCF",
    "endpoint.value": 1.0
  },
  {
    "compound": "O=C(Oc1cccc2cccnc12)c1cn(CCCCCF)c2ccccc12",
    "endpoint.value": 2.7
  },
  {
    "compound": "CC(C)(C)C(NC(=O)c1nn(CC2CCCCC2)c2ccccc12)C(N)=O (centres unmarked)",
    "endpoint.value": 2.7
  },
  {
    "compound": "C=CCCCn1nc(C(=O)NC(C(=O)OC)C(C)(C)C)c2ccccc21 (centres unmarked)",
    "endpoint.value": 3.0
  }
]

For the next question, use this compound.
What does the record list as G3 for "CCCCCn1c2ccccc2c2c(=O)n(C(C)(C)c3ccccc3)ccc21" ?
2.2

* * *

- protocol.summary: LC–MS/MS analysis of serum and urine samples of intoxication cases
- Format: in vivo, human
- recorded.conditions: intoxication case B (AB‐CHMINACA), patient serum
experimental.endpoint: Concentration in serum

[
  {
    "compound": "O=C(NC12CC3CC(CC(C3)C1)C2)c1nn(CCCCCF)c2ccccc12 [5F-AKB-48]",
    "Concentration in serum": "< 0.1 ng/mL"
  },
  {
    "compound": "CCCCCn1nc(C(=O)c2cccc3ccccc23)c2ccccc21 [THJ-018]",
    "Concentration in serum": "< 0.1 ng/mL"
  },
  {
    "compound": "O=C(c1cccc2ccccc12)c1nn(CCCCCF)c2ccccc12 [THJ-2201]",
    "Concentration in serum": "< 0.1 ng/mL"
  }
]

For every item in the list below, what is its measured Concentration in serum?
1. O=C(Oc1cccc2cccnc12)c1cn(CCCCCF)c2ccccc12 [5F‐PB‐22]
2. CC(C)C(NC(=O)c1nn(CC2CCCCC2)c2ccccc12)C(N)=O (centres unmarked)

1: ~1.5 ng/mL; 2: 27 ng/mL
